Tested on: PDGFRA;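 further: KINOMEscan kinase panel screen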
experimentalContext: concentration: 1 μM,replicates: in singlicate; n = 1
Please use yes (1) whenever %Inh is not below 40%, and no (0) whenever it is.

Decide: %Inh of CCNCC(Cc1ccccc1)NC(=O)c1cc(Br)c(-c2ccnc3[nH]ccc23)s1.Cl.Cl (stereo not shown) >= 40%?
yes (1)

Moving on to the next compound: O=C(Nc1cccc(Oc2ccc3nccn3n2)c1)Nc1cccc(C(F)(F)F)c1
yes (1)

Moving on to the next compound: Cc1nnc(-c2ccc3occ(-c4ccc(S(C)=O)cc4)c3n2)o1 (stereo not shown)
no (0)

Moving on to the next compound: c1ccc(Oc2ccc(Nc3ccnc4ccc(-c5ccccn5)cc34)cc2)cc1
no (0)

Moving on to the next compound: Cc1cccc(-c2nc(Nc3ccncc3)c3sccc3n2)n1
no (0)

Moving on to the next compound: CCn1c(-c2nonc2N)nc2cncc(Br)c21
yes (1)

Moving on to the next compound: COC(=O)c1cccc(NC(=O)NC2CCN(c3ccnc(Nc4cc(OC)c(OC)c(OC)c4)n3)C2)c1 (stereo not shown)
no (0)

Moving on to the next compound: COc1cc2ncn(-c3cc(OCC4CCCCC4)c(C(N)=O)s3)c2cc1OC
no (0)

Moving on to the next compound: Cn1cc(-c2cccc3c(N)c(C(N)=O)nnc23)cn1
no (0)

Moving on to the next compound: Cl.Nc1n[nH]c2cc(-c3ccccn3)ccc12
no (0)

Moving on to the next compound: CC(C)c1nc(-c2cccc(NS(=O)(=O)c3ccccc3)c2)c(-c2ccnc(Nc3ccc4c(c3)CN(C)CC4)n2)s1
yes (1)

Moving on to the next compound: Cc1ccc(C(=O)Nc2ccc(Oc3ccc4nc(NC(=O)C5CC5)cn4c3)c(F)c2)c(=O)n1-c1ccccc1
yes (1)

Moving on to the next compound: Nc1nccc(-c2ccc3c(N)n[nH]c3c2)n1
no (0)

Moving on to the next compound: COc1cc(Nc2nccc(N3CCC(NC(=O)c4cccc(C#N)c4)C3)n2)cc(OC)c1OC (stereo not shown)
no (0)

Moving on to the next compound: CCn1c(-c2nonc2N)nc2cncc(CNC3CCNCC3)c21.Cl
no (0)

Moving on to the next compound: CC(C(=O)NC1CCN(c2ccnc(Nc3ccc(F)cc3)n2)C1)c1ccc(Cl)cc1 (stereo not shown)
no (0)

Moving on to the next compound: Cc1ccc2c(-c3ccnc(Nc4ccc(C(F)(F)F)cc4)n3)cnn2n1
no (0)

Moving on to the next compound: CCOC(=O)N1CCC(n2cnc(-c3ccc(F)cc3)c2-c2ccnc(N)n2)CC1
no (0)

Moving on to the next compound: O=C(Nc1n[nH]c2cc(-c3ccco3)ccc12)C1CC1
no (0)

Moving on to the next compound: CS(=O)c1ccc(-c2coc3ccc(-c4n[nH]c(=O)o4)cc23)cc1 (stereo not shown)
no (0)

Moving on to the next compound: CN(c1ccccc1CNc1nc(Nc2ccc3c(c2)CC(=O)N3)ncc1C(F)(F)F)S(C)(=O)=O
no (0)

Moving on to the next compound: COc1cc2c(Nc3ccc(NC(=O)c4ccccc4)cc3)ncnc2cc1OCCCN1CCOCC1
no (0)

Moving on to the next compound: Cn1ccc2ncnc(Oc3ccc(NC(=O)Nc4cccc(C(F)(F)F)c4)c(Cl)c3)c21
yes (1)

Moving on to the next compound: CC(=O)c1c(-c2ccncc2)[nH]c(-c2ccncc2)c1C
no (0)

Moving on to the next compound: O=C(Nc1ccccc1)c1cccc(Oc2ccc3nccn3n2)c1
yes (1)

Moving on to the next compound: C[C@@H](Oc1cc(-n2cnc3cc(-c4cnn(C)c4)ccc32)sc1C(N)=O)c1ccccc1Cl
yes (1)

Moving on to the next compound: NC(=O)Nc1sc(-c2ccc(F)cc2)cc1C(N)=O
no (0)

Moving on to the next compound: COc1ccc(Nc2nccc(N3CCC(NC(=O)c4cccc(C#N)c4)C3)n2)cc1 (stereo not shown)
no (0)

Moving on to the next compound: CN1CCN(CCNc2nc3cc(Oc4ccc(NC(=O)Nc5cc(C(F)(F)F)ccc5F)cc4)ccc3[nH]2)CC1.Cl.Cl
yes (1)

Moving on to the next compound: CC(=O)Nc1ccc(-c2cc3ncnc(SCC(=O)O)c3s2)cc1
yes (1)

Moving on to the next compound: Cl.Cl.NC[C@H](CC1CCCCC1)NC(=O)c1ccc(-c2ccnc3[nH]ccc23)s1
yes (1)

Moving on to the next compound: CNC(=O)c1ccccc1Nc1nc(Nc2cccc(CS(C)(=O)=O)c2)ncc1C.O=CO
yes (1)

Moving on to the next compound: O=c1[nH]cc(-c2ccc(O)cc2)c2sc(-c3ccncc3)cc12
no (0)

Moving on to the next compound: Cn1ccc2ncnc(Oc3ccc(NC(=O)Nc4cncc(C(F)(F)F)c4)c(Cl)c3)c21
yes (1)

Moving on to the next compound: Cn1ccc2ncnc(Oc3ccc(NC(=O)Nc4cccc(C(F)(F)F)c4)c(F)c3)c21
yes (1)
